- assay explanation: Ketoprofen plasma levels achieved by on-knee patch delivery (Example 7)
- Assay type: in vivo, human
- run parameters: human, plasma, topical, 136 mg, Mean Ketoprofen Plasma Concentration, Single Patch; time point 12 hrs; N = 22
experimental readout: concentration at 12 h (ng/mL)
State just the number; it will be interpreted in ng/mL.

Form field: reported concentration at 12 h of CC(C(=O)O)c1cccc(C(=O)c2ccccc2)c1 (stereo not shown) 121

###

- assay explanation: Ketoprofen plasma levels achieved by on-knee patch delivery (Example 7)
- Assay type: in vivo, human
- run parameters: human, plasma, topical, 272 mg, Mean Ketoprofen Plasma Concentration, Two Patches Dose-Normalized to one patch; time point 18 hrs; N = 22
experimental readout: concentration at 18 h (ng/mL)
State just the number; it will be interpreted in ng/mL.

Form field: reported concentration at 18 h of CC(C(=O)O)c1cccc(C(=O)c2ccccc2)c1 (stereo not shown) [Ketoprofen] 34.2
